Biological target: human interleukin-6 (Homo sapiens)
Experiment: solution affinity (radiolabel, ZORBAX resin capture)
Conditions: Bn-dU replaces dT; SB17T: 40 mM HEPES pH 7.5, 102 mM NaCl, 5 mM KCl, 5 mM MgCl2, 1 mM EDTA, 0.05% Tween 20, 37 C
propertyName: Kd (nM)
State the answer as a number, implicitly in nM.

Q: Query Kd for GGCAGGUUUGGUAUUAACACGUUAAGUCGUGG [SL1023]
Result: 1
